- target entity: S1P1 (Homo sapiens, UniProt P21453)
- Sequence (P21453 whole entry): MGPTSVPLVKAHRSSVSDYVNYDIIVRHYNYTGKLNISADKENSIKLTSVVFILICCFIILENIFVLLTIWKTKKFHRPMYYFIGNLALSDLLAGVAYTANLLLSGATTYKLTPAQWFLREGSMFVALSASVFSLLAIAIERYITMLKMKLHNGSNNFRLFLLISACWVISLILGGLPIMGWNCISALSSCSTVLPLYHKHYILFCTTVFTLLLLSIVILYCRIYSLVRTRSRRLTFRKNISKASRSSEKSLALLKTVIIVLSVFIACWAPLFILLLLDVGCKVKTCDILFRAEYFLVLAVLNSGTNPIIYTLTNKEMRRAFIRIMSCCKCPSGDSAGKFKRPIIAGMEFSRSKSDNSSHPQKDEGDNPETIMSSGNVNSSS
- assay name: Method A: Receptor [35S] GTPγS Binding Assay, membranes from S1P1/CHO cells
- Assay type: biochemical
- Parameters: expressed in transfected cells; host or cells: S1P1/CHO cells
- conditions used: Method A; S1P1/CHO cell membranes
pEC50: −log10 of the molar value. Counter-ions that a name gives are not always drawn.

{"compound": "O=C(O)C1CN(Cc2ccc(-c3noc(-c4noc(-c5ccccc5)c4CCC(F)(F)F)n3)cc2)C1 [Example 8]", "pEC50": 8.43}
{"compound": "CCCCc1c(-c2nc(-c3ccc(CN4CC(C(=O)O)C4)cc3)no2)noc1-c1ccccc1 [Example 3]", "pEC50": 9.59}
{"compound": "CC(F)(F)c1c(-c2nc(-c3ccc(CN4CC(C(=O)O)C4)cc3)no2)noc1-c1ccccc1 [Example 9]", "pEC50": 8.51}
{"compound": "CCc1c(-c2nc(-c3ccc(CN4CC(C(=O)O)C4)c(Br)c3)no2)noc1-c1ccccc1 [Example 5]", "pEC50": 8.28}
{"compound": "O=C(O)C1CN(Cc2ccc(-c3noc(-c4noc(-c5ccccc5)c4-c4ccccc4)n3)c(C(F)(F)F)c2)C1 [Example 25]", "pEC50": 8.04}
{"compound": "CNC(=O)c1c(-c2ccccc2)noc1-c1nc(-c2ccc(CN3CC(C(=O)O)C3)cc2)no1 [Example 14]", "pEC50": 6.82}
{"compound": "Cc1cc(-c2noc(-c3onc(-c4ccccc4)c3C(F)(F)F)n2)ccc1CN1CC(C(=O)O)C1 [Example 22]", "pEC50": 9.28}
{"compound": "CCCc1c(-c2ccccc2)noc1-c1nc(-c2ccc(CN3CC(C(=O)O)C3)cc2)no1 [Example 11]", "pEC50": 9.33}
{"compound": "CC(C)Cc1c(-c2nc(-c3ccc(CN4CC(C(=O)O)C4)cc3)no2)noc1-c1ccccc1 [Example 4]", "pEC50": 9.15}
{"compound": "O=C(O)C1CN(Cc2ccc(-c3noc(-c4cc(-c5ccccc5)c(C(F)(F)F)s4)n3)cc2)C1 [Comp. A, reference compound]", "pEC50": 7.08}
{"compound": "CC(C)Cc1onc(-c2nc(-c3ccc(CN4CC(C(=O)O)C4)cc3)no2)c1C(F)(F)F [Example 20]", "pEC50": 9.25}
{"compound": "O=C(O)C1CN(Cc2ccc(-c3noc(-c4onc(-c5ccccc5)c4C(F)(F)F)n3)cc2)C1 [Example 1]", "pEC50": 9.17}
{"compound": "CC(C)(C)c1c(-c2nc(-c3ccc(CN4CC(C(=O)O)C4)cc3)no2)noc1-c1ccccc1 [Example 7]", "pEC50": 8.18}
{"compound": "O=C(O)C1CN(Cc2ccc(-c3noc(-c4onc(-c5ccccc5)c4C(F)(F)F)n3)c(Cl)c2)C1 [Example 23]", "pEC50": 8.72}
{"compound": "CCC(F)(F)c1c(-c2nc(-c3ccc(CN4CC(C(=O)O)C4)cc3)no2)noc1-c1ccccc1 [Example 10, trifluoroacetic acid salt]", "pEC50": 9.08}
